# Test system: HOP-18
# method-description: NCI tumour cell line growth inhibition, 48 h
Calls of active or inactive are those of the source. No stated cut-off is given here; in the data, active = GI50 up to about 1.1 µM and inactive = higher.
measure-name: GI50

- molecule: "COc1ccc(C(c2c(O)c3ccccc3n(C)c2=O)c2c(O)c3ccccc3n(C)c2=O)cc1"
  result: "35.7 µM (inactive)"
- molecule: "O=C(O)C1OC(n2cc(F)c(=O)[nH]c2=O)CC1O (stereo not given)"
  result: "40.6 µM (inactive)"
- molecule: "O=C1COc2cc(NC(=S)Nc3ccccc3)ccc2N1"
  result: "> 100 µM (inactive)"
- molecule: "O=C(NC1CCCCC1)c1c(O)[nH]c(=S)[nH]c1=O"
  result: "> 100 µM (inactive)"

Moving on to another molecule below.
Given the entry O=S1(=O)[C@H](c2ccccc2)c2c(-c3ccccc3)sc(-c3ccccc3)c2[C@@H]1c1ccccc1 , report its measured GI50.
77.1 µM (inactive)

# credit: ChEMBL document CHEMBL1201862
